Just for reference, patent US20230242658A1 is where these values come from.

Biological target: T1, histidine-labeled human 4-1BB protein (human, UniProt Q07011 24-186)
T1 construct: also called Human 4-1BB protein antigen (histidine-labeled); human 4-1BB protein and his tag (Acrobiosystem, #41B-H5227); not shown: histidine tag
T1 sequence (Q07011 24-186): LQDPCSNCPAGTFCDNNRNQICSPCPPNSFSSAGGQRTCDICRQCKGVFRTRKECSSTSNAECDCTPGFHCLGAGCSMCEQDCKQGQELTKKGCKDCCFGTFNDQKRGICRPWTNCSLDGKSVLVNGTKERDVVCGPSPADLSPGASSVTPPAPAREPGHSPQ
Test: BLI Octet RED96, AHC sensor, his-tagged antigen
Classify by measured koff: satisfied if it is equal to or exceeds 0.004 s⁻¹, not satisfied if it is smaller.

The following binders have reported results that may help.
>>> label("PR001836 (antibody, human IgG1, V domains shown, HCAb, heavy chain only, human IgG1 Fc; also called 1016P0020G4) VH: EVQLLESGGGLVQPGGSLRLSCAASGFIFSNFAMTWVRQPPEKGLKWVSSINGSGFNTYYTDSVKGRFTISRDNSRNTLYLQMNRLTAEDTAVYFCAKEGSSETDDHYYNVDVWGQGTTVTVSS")
"not satisfied"
>>> label("PR001833 (antibody, human IgG1, V domains shown, HCAb, heavy chain only, human IgG1 Fc; also called 1016P0016F8) VH: EVQLLESGGGLVQPGGSLRLSCAASGFTFSSYAMSWVRQAPEKGLEWVSSISGSGGSTFYADSVKGRFTISRDNSKNTLYLQMNSLRAEDTAVYFCAKEGATETDDYHFNTDVWGQGTTVTVSS")
"satisfied"
>>> label("PR001830 (antibody, human IgG1, V domains shown, HCAb, heavy chain only, human IgG1 Fc; also called 1016P0014G8) VH: EVQLLESGGGLVQPGGSLRLSCTASGFTFSNYAMSWVRQAPEKGLEWVSSISGSGGSTFYADSVKGRFTISRDNSKNTLYLQMNSLRAEDTAVYFCAKEGSSETDDHYYNVDVWGQGTTVTVSS")
"satisfied"
>>> label("PR001838 (antibody, human IgG1, V domains shown, HCAb, heavy chain only, human IgG1 Fc; also called 1016P0030B2) VH: EVQLLESGGGLVQPGGSLRLSCAASGFTFSNYAMSWFRQPPETGLKWVSSIDGSGGDTYYADSVKGRFTISRDNSKNTLYLQMNSLRAEDTAVYYCAKEGSHGTDDSHYDVDVWGQGTTVTVSS")
"not satisfied"
>>> label("PR001840 (antibody, human IgG1, V domains shown, HCAb, heavy chain only, human IgG1 Fc; also called 1016P0037D2) VH: EVQLVESGGGLVQPGGSLRLSCAASGFTFSSYWMHWVRQAPGKGLVWVSRINSDGSSTSYADSVQGRFTISRDNAKNTLYLQMNSLRAEDTAVYYCVRKGSSSYYHYSIEDDWGQGTLVTVSS")
"not satisfied"
>>> label("PR001760 (antibody, human IgG1, V domains shown, HCAb, heavy chain only, human IgG1 Fc; also called 1016P0011G10) VH: EVQLVESGGGVVQPGGSLRLSCAASGFTFSNYAMTWVRQAPEKGLEWVSSISGSGVSTYYADSVKGRFTISRDNSKNTLYLQMTRLTAEDTAVYFCAKEGSSETDDHYYNVDVWGQGTTVTVSS")
"satisfied"

Kindly determine if koff recorded for PR001758 (antibody, human IgG1, V domains shown, HCAb, heavy chain only, human IgG1 Fc; also called 1016P0010B11) VH: EVQLLESGGGLVQLGGSLRLSCAASGFTFSRYAMTWVRQAPEKGLEWVSSISGSGDDTYYGDSVKGRFTISRDNSQNTVYLQMNSLRAEDTAVYFCAKEKAGTTGDYYYNVDVWGQGTTVTVSS is above or exactly 0.004 s⁻¹.
satisfied
